Target: Aryl hydrocarbon receptor (Homo sapiens)
Assay: ATG_Ahr_CIS: Attagene CIS-FACTORIAL HepG2 Assay for human Aryl Hydrocarbon Receptor (Ahr) (AID 2282930)
Details: HepG2 AhR cis-factorial reporter transcription; actives raise or lower the signal
Activity calls are given as the source filed them. Rule for the calls: active = hit-call score of the fitted dose curve at least 0.9, where 1 is the maximum; inactive = score below 0.9.
Your reply should match one of these outcome classes. y = active, n = inactive

For orientation, consider the following solved cases.
molecule: OCCCCC(O)CO (stereo not drawn)
assigned.label: n
--
molecule: O=C(O)CCCCCCCCCCCC(=O)O
assigned.label: n
--
molecule: CC(C)=CCCC(C)CC(=O)O (stereo not drawn)
assigned.label: n
--
molecule: Cc1cc(S(=O)(=O)O)ccc1N=Nc1c(O)ccc2ccccc12
assigned.label: y
--
molecule: CSCCC=O
assigned.label: n

Inquiry: Check the results log: what was the call for `C=CC(=C)CCCC(C)(C)OC(C)=O` ?
Reply text: n

Inquiry: Check the results log: what was the call for `C[C@H]1C[C@@H](O)CC(C)(C)C1` ?
Reply text: n

Inquiry: Check the results log: what was the call for `CC(=O)NCCO` ?
Reply text: n
